The origin of these recorded values is patent US20240209076A1.

Would you mind telling me the reported koff of each entry?
Biological target: human IL-6 (human, UniProt P05231 30-212)
Sequence (P05231 30-212 limits assumed): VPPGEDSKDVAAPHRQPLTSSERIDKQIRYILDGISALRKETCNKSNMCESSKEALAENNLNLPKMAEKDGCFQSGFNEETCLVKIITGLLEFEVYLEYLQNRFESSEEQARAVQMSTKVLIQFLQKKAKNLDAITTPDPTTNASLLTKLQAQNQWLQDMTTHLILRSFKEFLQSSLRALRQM
Assay: SPR Biacore, supernatant, Protein A capture, 37 C
// units = s⁻¹; emit number, no label

Given the binder Anti-IL-6 antibody, heavy chain S35H, G66D / light chain M32L, M50D, N52S, M88Q (antibody, IgG1, V domains shown, IgG1; variable domains only; VL is variant III) VH: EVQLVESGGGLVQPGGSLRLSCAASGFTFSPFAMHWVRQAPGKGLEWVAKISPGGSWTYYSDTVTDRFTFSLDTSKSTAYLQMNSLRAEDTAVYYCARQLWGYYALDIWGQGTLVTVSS VL: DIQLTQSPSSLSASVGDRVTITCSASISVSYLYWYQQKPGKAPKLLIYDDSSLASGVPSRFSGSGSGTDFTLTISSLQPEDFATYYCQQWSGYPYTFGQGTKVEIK , what is its reported koff?
0.000607

How about Anti-IL-6 antibody, heavy chain WT / light chain M32L, M50D, N52S, M88Q (antibody, IgG1, V domains shown, IgG1; variable domains only; VL is variant III) VH: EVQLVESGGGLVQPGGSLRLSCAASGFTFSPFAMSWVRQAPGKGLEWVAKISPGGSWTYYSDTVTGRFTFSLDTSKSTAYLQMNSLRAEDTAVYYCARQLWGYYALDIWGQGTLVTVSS VL: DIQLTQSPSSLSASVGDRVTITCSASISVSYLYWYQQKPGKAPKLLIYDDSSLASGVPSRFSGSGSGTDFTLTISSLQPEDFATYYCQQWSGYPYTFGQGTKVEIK ?
0.000631

How about Anti-IL-6 antibody, heavy chain S35H, G66D, L100F / light chain WT (antibody, IgG1, V domains shown, IgG1; variable domains only) VH: EVQLVESGGGLVQPGGSLRLSCAASGFTFSPFAMHWVRQAPGKGLEWVAKISPGGSWTYYSDTVTDRFTFSLDTSKSTAYLQMNSLRAEDTAVYYCARQFWGYYALDIWGQGTLVTVSS VL: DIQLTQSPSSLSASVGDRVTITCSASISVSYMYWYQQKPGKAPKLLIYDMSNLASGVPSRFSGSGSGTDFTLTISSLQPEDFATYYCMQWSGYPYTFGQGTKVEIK ?
0.000612

How about Anti-IL-6 antibody, heavy chain S35H, G66D, L100G / light chain M32L, M50D, N52S, M88Q (antibody, IgG1, V domains shown, IgG1; variable domains only; VL is variant III) VH: EVQLVESGGGLVQPGGSLRLSCAASGFTFSPFAMHWVRQAPGKGLEWVAKISPGGSWTYYSDTVTDRFTFSLDTSKSTAYLQMNSLRAEDTAVYYCARQGWGYYALDIWGQGTLVTVSS VL: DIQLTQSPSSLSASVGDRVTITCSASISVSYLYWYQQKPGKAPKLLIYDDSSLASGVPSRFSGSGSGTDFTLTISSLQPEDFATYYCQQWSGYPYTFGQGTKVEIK ?
0.0016

How about Anti-IL-6 antibody, heavy chain S35H, G66D, L100D / light chain WT (antibody, IgG1, V domains shown, IgG1; variable domains only) VH: EVQLVESGGGLVQPGGSLRLSCAASGFTFSPFAMHWVRQAPGKGLEWVAKISPGGSWTYYSDTVTDRFTFSLDTSKSTAYLQMNSLRAEDTAVYYCARQDWGYYALDIWGQGTLVTVSS VL: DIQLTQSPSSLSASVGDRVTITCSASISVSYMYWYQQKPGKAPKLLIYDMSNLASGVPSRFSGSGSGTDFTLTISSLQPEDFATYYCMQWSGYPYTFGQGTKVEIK ?
0.000799
